System: Hepatitis C virus
Assay: Antiviral activity against HCV pseudoparticle harboring HCV envelope protein E1 and E2 assessed as inhibition of pseudoparticle entry into human Huh7 cells at 5 uM measured after 3 days by Bright-Glo luciferase reporter gene assay relative to control
Type: functional, Hepacivirus hominis
Conditions: Huh-7, 72 h
Decision: inhibition at 5 µM compared against 10%; not below it gives yes, below it gives no.

testSmiles: C=C[C@@H]1C2=CCOC(=O)C2=CO[C@H]1O[C@@H]1O[C@H](CO)[C@H](F)[C@H](O)[C@H]1O
discreteLabel: yes

testSmiles: C=C[C@@H]1C2=CCOC(=O)C2=CO[C@H]1O[C@@H]1O[C@H](COC(=O)c2ccccc2)[C@@H](N=[N+]=[N-])[C@H](OC(=O)c2ccccc2)[C@H]1OC(=O)c1ccccc1
discreteLabel: no

testSmiles: C=C[C@@H]1C2=CCOC(=O)C2=CO[C@H]1O[C@@H]1O[C@H](CF)[C@@H](O)[C@H](O)[C@H]1O
discreteLabel: no

testSmiles: C=C[C@@H]1C2=CCOC(=O)C2=CO[C@H]1O[C@@H]1O[C@H](CNC(C)=O)[C@@H](OC(C)=O)[C@H](OC(C)=O)[C@H]1OC(C)=O
discreteLabel: no

testSmiles: C=C[C@@H]1C2=CCOC(=O)C2=CO[C@H]1O[C@@H]1O[C@H](COC(=O)c2ccccc2)[C@@H](SC(C)=O)[C@H](OC(=O)c2ccccc2)[C@H]1OC(=O)c1ccccc1
discreteLabel: yes

testSmiles: C=C[C@@H]1C2=CCOC(=O)C2=CO[C@H]1O[C@@H]1O[C@H](CSC)[C@@H](O)[C@H](O)[C@H]1O
discreteLabel: yes

* * *

inhibition at 5 µM by entry:
Tested on: Hepatitis C virus
Test: Antiviral activity against HCV pseudoparticle harboring HCV envelope protein E1 and E2 assessed as inhibition of pseudoparticle entry into human Huh7 cells at 5 uM measured after 3 days by Bright-Glo luciferase reporter gene assay relative to control
Assay type: functional, Hepacivirus hominis
Conditions: Huh-7, 72 h

testSmiles: C=C[C@@H]1C2=CCOC(=O)C2=CO[C@H]1O[C@@H]1O[C@H](COC(=O)c2ccccc2)[C@H](N=[N+]=[N-])[C@H](OC(=O)c2ccccc2)[C@H]1OC(=O)c1ccccc1
subjectOfTest: Hepatitis C virus
measureUnit: %
inhibition at 5 µM: 17.9

testSmiles: C=C[C@@H]1C2=CCOC(=O)C2=CO[C@H]1O[C@@H]1OC(COC(=O)c2ccccc2)=C[C@H](OC(=O)c2ccccc2)[C@H]1OC(=O)c1ccccc1
subjectOfTest: Hepatitis C virus
measureUnit: %
inhibition at 5 µM: 40.3

testSmiles: C=C[C@@H]1C2=CCOC(=O)C2=CO[C@H]1O[C@@H]1O[C@H](CO)[C@H](N=[N+]=[N-])[C@H](O)[C@H]1O
subjectOfTest: Hepatitis C virus
measureUnit: %
inhibition at 5 µM: 23.3

testSmiles: C=C[C@@H]1C2=CCOC(=O)C2=CO[C@H]1O[C@@H]1O[C@H](COC(=O)c2ccccc2)[C@@H](OS(C)(=O)=O)[C@H](OC(=O)c2ccccc2)[C@H]1OC(=O)c1ccccc1
subjectOfTest: Hepatitis C virus
measureUnit: %
inhibition at 5 µM: 40.4

testSmiles: C=C[C@@H]1C2=CCOC(=O)C2=CO[C@H]1O[C@@H]1O[C@H](COC(=O)c2ccccc2)[C@H](F)[C@H](OC(=O)c2ccccc2)[C@H]1OC(=O)c1ccccc1
subjectOfTest: Hepatitis C virus
measureUnit: %
inhibition at 5 µM: 0.2

testSmiles: C=C[C@@H]1C2=CCOC(=O)C2=CO[C@H]1O[C@@H]1O[C@H](CSC(C)=O)[C@@H](OC(C)=O)[C@H](OC(C)=O)[C@H]1OC(C)=O
subjectOfTest: Hepatitis C virus
measureUnit: %
inhibition at 5 µM: 21.7
